Kindly supply the reported Heart values for the records listed here.
Test system: PC-3 PIP/flu tumor-bearing mice
Assay: Biodistribution studies in PC-3 PIP/flu tumor-bearing mice
Settings: 96 h p.i.
Give bare numbers, in % IA/g.

1. O=C(O)CCC(NC(=O)NC(CCCCNC(=O)C(Cc1ccc2ccccc2c1)NC(=O)C1CCC(CNC(=O)C(CCCCNC(=O)CN2CCN(CC(=O)O)CCN(CC(=O)O)CCN(CC(=O)O)CC2)NC(=O)CCCCCCC(=O)NC(CCCCNC(=O)CCCc2ccc(I)cc2)C(=O)O)CC1)C(=O)O)C(=O)O (stereo not shown) [^177Lu-PSMA-ALB-04, metal not drawn] :: 4.81
2. O=C(O)CCC(NC(=O)NC(CCCCNC(=O)C(Cc1ccc2ccccc2c1)NC(=O)C1CCC(n2cc(CC(NC(=O)CN3CCN(CC(=O)O)CCN(CC(=O)O)CCN(CC(=O)O)CC3)C(=O)NC(CCCCNC(=O)CCCc3ccc(I)cc3)C(=O)O)nn2)CC1)C(=O)O)C(=O)O (stereo not shown) [^177Lu-PSMA-ALB-01, metal not drawn] :: 2.70
3. O=C(O)CCC(NC(=O)NC(CCCCNC(=O)C(Cc1ccc2ccccc2c1)NC(=O)C1CCC(CNC(=O)C(CCCCNC(=O)CN2CCN(CC(=O)O)CCN(CC(=O)O)CCN(CC(=O)O)CC2)NC(=O)CC(NC(=O)CC(NC(=O)CCCc2ccc(I)cc2)C(=O)O)C(=O)O)CC1)C(=O)O)C(=O)O (stereo not shown) [^177Lu-PSMA-ALB-05, metal not drawn] :: 0.70

Next up:
For the compound O=C(O)CCC(NC(=O)NC(CCCCNC(=O)C(Cc1ccc2ccccc2c1)NC(=O)C1CCC(CNC(=O)C(CCCCNC(=O)CCCc2ccc(I)cc2)NC(=O)CN2CCN(CC(=O)O)CCN(CC(=O)O)CCN(CC(=O)O)CC2)CC1)C(=O)O)C(=O)O (stereo not shown) [^177Lu-PSMA-ALB-03, metal not drawn] , give its measured Heart value.
3.15

* * *

System: PC-3 PIP/flu tumor-bearing mice
Experiment: Biodistribution studies in PC-3 PIP/flu tumor-bearing mice
Settings: 96 h p.i.; PC-3 PIP tumor
Quantity: Tumor-to-liver
Numbers only.

1) O=C(O)CCC(NC(=O)NC(CCCCNC(=O)C(Cc1ccc2ccccc2c1)NC(=O)C1CCC(n2cc(CC(NC(=O)CN3CCN(CC(=O)O)CCN(CC(=O)O)CCN(CC(=O)O)CC3)C(=O)NC(CCCCNC(=O)CCCc3ccc(I)cc3)C(=O)O)nn2)CC1)C(=O)O)C(=O)O (stereo not shown) [^177Lu-PSMA-ALB-01, metal not drawn] :: 33.7

Look at each compound and report its Tumor-to-liver.
1. O=C(O)CCC(NC(=O)NC(CCCCNC(=O)C(Cc1ccc2ccccc2c1)NC(=O)C1CCC(CNC(=O)C(CCCCNC(=O)CCCc2ccc(I)cc2)NC(=O)CN2CCN(CC(=O)O)CCN(CC(=O)O)CCN(CC(=O)O)CC2)CC1)C(=O)O)C(=O)O (stereo not shown) [^177Lu-PSMA-ALB-03, metal not drawn]
2. O=C(O)CCC(NC(=O)NC(CCCCNC(=O)C(Cc1ccc2ccccc2c1)NC(=O)C1CCC(CNC(=O)C(CCCCNC(=O)CN2CCN(CC(=O)O)CCN(CC(=O)O)CCN(CC(=O)O)CC2)NC(=O)CCCCCCC(=O)NC(CCCCNC(=O)CCCc2ccc(I)cc2)C(=O)O)CC1)C(=O)O)C(=O)O (stereo not shown) [^177Lu-PSMA-ALB-04, metal not drawn]
3. O=C(O)CCC(NC(=O)NC(CCCCNC(=O)C(Cc1ccc2ccccc2c1)NC(=O)C1CCC(CNC(=O)C(CCCCNC(=O)CN2CCN(CC(=O)O)CCN(CC(=O)O)CCN(CC(=O)O)CC2)NC(=O)CC(NC(=O)CC(NC(=O)CCCc2ccc(I)cc2)C(=O)O)C(=O)O)CC1)C(=O)O)C(=O)O (stereo not shown) [^177Lu-PSMA-ALB-05, metal not drawn]

1. 42.6
2. 13.4
3. 62.8
